Entries and their pIC50 values follow.
- Test system: MYB
- Experimental protocol: HiBiT protein abundance assay, MYB (K562 HiBiT knock-in)
- Format: cell-based, human
- Protocol conditions: HiBiT knock-in K562 cells, 24 hours, top dose 10 μM
pIC50: −log10 of the molar value.
Attribute measured: pIC50

Cn1cc2cc(-c3ccc4nc(N5CC[C@@H](NC6COC6)C5)ccc4n3)c(O)cc2n1: 5.00 to 6.00
CNC(=O)c1nc(-c2cc3cn(C)nc3c(C)c2O)nc2ccc(N3C[C@H](C)N[C@@H](C)C3)cc12: > 7.00
Cc1c(O)c(-c2ccc3nc(N4CC[C@H](NCC5CC5)C4)ccc3n2)cc2cn(C)nc12 (single isomer, unassigned): > 7.00
Cc1nc2c(C)c(O)c(-c3ccc4nc(N5CC[C@@H](NC6(C)CC6)C5)ccc4n3)cc2o1 (single isomer, unassigned): > 7.00
C[C@@H]1CN(c2ccc3nc(-c4cc5cn(C)nc5c(F)c4O)nc(C(=O)NCCO)c3c2)C[C@H](C)N1: 6.00 to 7.00
Cc1nc2cc(O)c(-c3ccc4nc(N5CC[C@@H](NC(C)(C)C)C5)ccc4n3)cc2o1: > 7.00
Cn1cc2cc(-c3ccc4nc(N5CC[C@@H](NC6(C)CC6)C5)ccc4n3)c(O)cc2n1: > 7.00

----------
- Test system: HTT
- Experimental protocol: HiBiT protein abundance assay, HTT (K562 HiBiT knock-in)
- Assay type: cell-based, human
- Protocol conditions: HiBiT knock-in K562 cells, 24 hours, top dose 10 μM
Below: a set of entries, each annotated with reported IC50.
Attribute measured: IC50

CN1CCC(N(C)c2ccc3nc(-c4cc5cn(C)nc5cc4O)ccc3n2)CC1 [Compound 126]: 100 to 1000 nM
Cc1nc2cc(O)c(-c3ccc4nc(N5CC[C@@H](NC6CC6)C5)ccc4n3)cc2o1 [Compound 212]: < 100 nM
Cn1cc2cc(-c3ccc4nc(C5CCNCC5)ccc4n3)c(C(F)F)cc2n1 [Compound 196]: > 10000 nM
Cn1cc2cc(-c3ccc4nc(N5CCC(NCC6CC6)C5)ccc4n3)c(O)c(F)c2n1 (stereo not shown) [Compound 387]: < 100 nM
Cc1nc2c(C)c(O)c(-c3ccc4nc(N5CC[C@H](NC6(C)CC6)C5)ccc4n3)cc2o1 (single isomer, unassigned) [Compound 311]: < 100 nM
Cc1c(O)c(-c2nc(-c3nn[nH]n3)c3cc(N4CCNCC4)ccc3n2)cc2cn(C)nc12 [Compound 541]: > 10000 nM
Cc1nc2cc(O)c(-c3ccc4nc(N5C[C@@H](C)N[C@@H](C6CC6)C5)ccc4n3)cc2o1 [Compound 419]: 100 to 1000 nM

----------
- System: HTT mRNA
- Experimental protocol: RT-qPCR splicing assay, HTT mRNA canonical (CJ) and alternative (AJ) junction
- Type: cell-based, human
- Protocol conditions: Homo sapiens, HTT canonical junction mRNA, RT-qPCR; read-out: HTT CJ (decrease in CJ mRNA levels, IC50)
Quick reference for IC50 among some molecules
Attribute measured: IC50

Cc1nc2cc(O)c(-c3ccc4nc(N5CCN[C@H](C6CC6)C5)ccc4n3)cc2o1 [Compound 421]: 0.1 to 1 µM
Cn1cc2cc(-c3ccc4nc(N5CCC(NC(C)(C)C)C5)ncc4n3)c(O)cc2n1 (stereo not drawn) [Compound 404]: < 0.1 µM
CNC1CCN(c2ccc3nc(-c4cc(F)c5nc(C)cn5c4)ncc3n2)C1 (stereo not drawn) [Compound 393]: 0.1 to 1 µM
Cc1c(O)c(-c2ccc3nc(N4CC[C@@H](NC(C)C)C4)ccc3n2)cc2cn(C)nc12 (single isomer, unassigned) [Compound 319]: < 0.1 µM
Cc1nc2cc(O)c(-c3ccc4nc(N5CC[C@H](NC(C)C)C5)ccc4n3)cc2o1 [Compound 233]: < 0.1 µM
Cc1nc2c(F)c(O)c(-c3ccc4nc(N5CC[C@@H](NC6CCC6)C5)ccc4n3)cc2o1 (single isomer, unassigned) [Compound 307]: < 0.1 µM
COCc1nc2cc(O)c(-c3ccc4nc(N5CCC(NC(C)(C)C)C5)ccc4n3)cc2o1 (stereo not drawn) [Compound 334]: 0.1 to 1 µM
CC(C)N[C@@H]1CCN(c2ccc3nc(-c4cc5cn(C)nc5c(F)c4O)ccc3n2)C1 (single isomer, unassigned) [Compound 285]: < 0.1 µM
Cc1nc2cc(O)c(-c3ccc4nc(N5CC[C@@H](N[C@H]6C[C@H](F)C6)C5)ccc4n3)cc2o1 (single isomer, unassigned) [Compound 348]: 0.1 to 1 µM
Cn1cc2nc(-c3ccc4nc(C5CCNCC5)ccc4n3)ccc2n1 [Compound 199]: 0.1 to 1 µM
Cn1cc2cc(-c3nc(C4CC4)c4cc(N5CCNCC5)ccc4n3)c(O)c(F)c2n1 [Compound 518, trifluoroacetic acid]: 1 to 10 µM
Cn1cc2cc(-c3ccc4nc(N5CC[C@@H](NC6CC6)C5)ccc4n3)c(O)cc2n1 [Compound 198]: < 0.1 µM
Cn1cc2cc(-c3ccc4nc(C5CCNCC5)ccc4n3)ncc2n1 [Compound 200]: 1 to 10 µM
Cn1cc2cc(-c3ccc4nc(N5CC[C@H](NC(C)(C)C)C5)ccc4n3)c(O)cc2n1 [Compound 154]: < 0.1 µM
Cn1cc2cc(-c3ccc4nc(N5CCC(N6CCCC6)C5)ccc4n3)c(O)cc2n1 (stereo not drawn) [Compound 125]: 0.1 to 1 µM
